The next entries give measured IC50 for Peroxisome proliferator-activated receptor alpha (Homo sapiens, UniProt Q07869).

[
  {
    "Compound": "CC[C@]1(C(=O)O)CCc2ccc(OCCCOc3ccc(C4CCC5(CC4)CC5)cc3Cl)cc2O1",
    "Relation": "=",
    "IC50, nM": 610
  },
  {
    "Compound": "CC(C)Oc1ccc(OCCCOc2ccc3c(c2)O[C@@](C)(C(=O)O)CC3)c(Cl)c1",
    "Relation": "=",
    "IC50, nM": 240
  },
  {
    "Compound": "CC[C@]1(C(=O)O)CCc2ccc(OCCCOc3ccc(C(C)C)cc3Cl)cc2O1",
    "Relation": "=",
    "IC50, nM": 38
  },
  {
    "Compound": "C[C@]1(C(=O)O)CCc2ccc(OCCCOc3ccc(OCC4CC4)cc3Cl)cc2O1",
    "Relation": "=",
    "IC50, nM": 600
  },
  {
    "Compound": "CC(C)Cc1ccc(OCCCOc2ccc3c(c2)O[C@@](C)(C(=O)O)CC3)c(Cl)c1",
    "Relation": "=",
    "IC50, nM": 16
  },
  {
    "Compound": "CC(C)c1ccc(OCCCOc2ccc3c(c2)O[C@@](C)(C(=O)O)CC3)c(Cl)c1",
    "Relation": "=",
    "IC50, nM": 48
  },
  {
    "Compound": "C[C@]1(C(=O)O)CCc2ccc(OCCCOc3ccc(C4CCCC4)cc3Cl)cc2O1",
    "Relation": "=",
    "IC50, nM": 40
  },
  {
    "Compound": "CC[C@]1(C(=O)O)CCc2ccc(OCCCOc3ccc(C4CCC(C)(C)CC4)cc3Cl)cc2O1",
    "Relation": "=",
    "IC50, nM": 1700
  },
  {
    "Compound": "CC[C@]1(C(=O)O)CCc2ccc(OCCCOc3ccc(Cl)cc3Cl)cc2O1",
    "Relation": "=",
    "IC50, nM": 400
  },
  {
    "Compound": "C[C@]1(C(=O)O)CCc2ccc(OCCCOc3ccc(Oc4ccc(F)cc4)cc3Cl)cc2O1",
    "Relation": "=",
    "IC50, nM": 140
  },
  {
    "Compound": "C[C@]1(C(=O)O)CCc2ccc(OCCCOc3ccc(OC(F)(F)F)cc3Cl)cc2O1",
    "Relation": "=",
    "IC50, nM": 57
  },
  {
    "Compound": "C[C@]1(C(=O)O)CCc2ccc(OCCCOc3ccc(OCC(F)(F)F)cc3Cl)cc2O1",
    "Relation": "=",
    "IC50, nM": 110
  },
  {
    "Compound": "CC(C)(C)c1ccc(OCCCOc2ccc3c(c2)O[C@@](C)(C(=O)O)CC3)c(Cl)c1",
    "Relation": "=",
    "IC50, nM": 230
  },
  {
    "Compound": "O=C(O)C1CCc2ccc(OCCCOc3ccc(OCC(F)(F)F)cc3Cl)cc2O1 (stereo unspecified)",
    "Relation": "=",
    "IC50, nM": 810
  },
  {
    "Compound": "C[C@]1(C(=O)O)CCc2ccc(OCCCOc3ccc(C4CCCCC4)cc3Cl)cc2O1",
    "Relation": "=",
    "IC50, nM": 28
  },
  {
    "Compound": "CC[C@]1(C(=O)O)CCc2ccc(OCCCOc3ccc(CC(C)C)cc3Cl)cc2O1",
    "Relation": "=",
    "IC50, nM": 29
  },
  {
    "Compound": "C[C@]1(C(=O)O)CCc2ccc(OCCCOc3ccc(F)cc3Cl)cc2O1",
    "Relation": ">",
    "IC50, nM": 15000
  },
  {
    "Compound": "CC[C@]1(C(=O)O)CCc2ccc(OCCCOc3ccc(F)cc3Cl)cc2O1",
    "Relation": ">",
    "IC50, nM": 15000
  },
  {
    "Compound": "CC[C@]1(C(=O)O)CCc2ccc(OCCCOc3ccc(OC(F)(F)F)cc3Cl)cc2O1",
    "Relation": "=",
    "IC50, nM": 37
  },
  {
    "Compound": "CC[C@]1(C(=O)O)CCc2ccc(OCCCOc3ccc(C4CCOCC4)cc3Cl)cc2O1",
    "Relation": "=",
    "IC50, nM": 710
  },
  {
    "Compound": "CC[C@]1(C(=O)O)CCc2ccc(OCCCOc3ccc(C4CCCCC4)cc3Cl)cc2O1",
    "Relation": "=",
    "IC50, nM": 15
  },
  {
    "Compound": "CC[C@]1(C(=O)O)CCc2ccc(OCCCOc3ccc(OCC(F)(F)F)cc3Cl)cc2O1",
    "Relation": "=",
    "IC50, nM": 66
  },
  {
    "Compound": "CC[C@]1(C(=O)O)CCc2ccc(OCCCOc3ccc(C(F)(F)F)cc3Cl)cc2O1",
    "Relation": "=",
    "IC50, nM": 90
  },
  {
    "Compound": "CC1(C)CCC(c2ccc(OCCCOc3ccc4c(c3)O[C@@](C)(C(=O)O)CC4)c(Cl)c2)CC1",
    "Relation": "=",
    "IC50, nM": 1700
  },
  {
    "Compound": "C[C@]1(C(=O)O)CCc2ccc(OCCCOc3ccc(OCC4CCC4)cc3Cl)cc2O1",
    "Relation": "=",
    "IC50, nM": 390
  },
  {
    "Compound": "C[C@]1(C(=O)O)CCc2ccc(OCCCOc3ccc(C4CCC5(CC4)CC5)cc3Cl)cc2O1",
    "Relation": "=",
    "IC50, nM": 1600
  }
]
